Biological target: Phosphatidylinositol 4,5-bisphosphate 3-kinase catalytic subunit delta isoform (Homo sapiens);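 note: values are mean percent inhibition of PI3K-delta, part of the GSK PKIS screen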
Details: at 0.1 µM
QUANTITY KIND: inhibition (%)
Provide only the numeric value, understood in %.

Would you please look over these solved cases?
compound=N#Cc1c(NC(=O)c2cccc3ccccc23)sc2c1CCCC2 quantity_kind=inhibition measured_result=2.32
compound="CC1=C(C(=O)Nc2ccc3[nH]ncc3c2)C(c2ccc(Cl)c(Cl)c2)CC(=O)N1 (configuration not stated)" quantity_kind=inhibition measured_result=0.18
compound=Cn1cc(C=C2C(=O)Nc3cccnc32)c2ccccc21 quantity_kind=inhibition measured_result=1.38
compound=CCn1c(-c2nonc2N)nc2c(C#CC(C)(C)O)nc(OC[C@@H](N)c3ccccc3)cc21 quantity_kind=inhibition measured_result=-2.59
compound=Cc1ccc(NC(=O)c2ccnc(N3CCCC3)c2)cc1-c1ccc(C(=O)NCC2CC2)cc1 quantity_kind=inhibition measured_result=3.4
compound=CCn1c(-c2nonc2N)nc2cnc(Oc3cccc(NC(=O)c4ccc(OCCN5CCOCC5)cc4)c3)cc21 quantity_kind=inhibition measured_result=1.26

Continue with the next compound.
Request the reported inhibition associated with "Cc1ccc(C(=O)NC2CCCCC2)cc1-c1ccc(C(=O)NCC2CC2)cc1"
1.89

* * *

// reported inhibition per item
Target: RAC-gamma serine/threonine-protein kinase (Homo sapiens) (UniProt Q9Y243)
Sequence (Q9Y243 whole entry): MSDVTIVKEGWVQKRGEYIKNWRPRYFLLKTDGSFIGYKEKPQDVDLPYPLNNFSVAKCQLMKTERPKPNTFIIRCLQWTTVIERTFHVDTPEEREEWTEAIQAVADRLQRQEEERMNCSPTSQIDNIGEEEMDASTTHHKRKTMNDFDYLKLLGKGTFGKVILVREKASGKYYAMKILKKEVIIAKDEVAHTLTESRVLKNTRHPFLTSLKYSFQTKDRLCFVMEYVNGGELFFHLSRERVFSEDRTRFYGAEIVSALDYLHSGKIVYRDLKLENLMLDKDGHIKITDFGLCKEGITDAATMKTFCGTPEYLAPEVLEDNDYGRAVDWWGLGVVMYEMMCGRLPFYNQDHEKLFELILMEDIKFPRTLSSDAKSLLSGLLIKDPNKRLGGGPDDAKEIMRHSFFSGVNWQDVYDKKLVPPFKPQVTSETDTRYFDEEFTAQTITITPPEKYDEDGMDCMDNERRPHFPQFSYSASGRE
Conditions: at 0.1 µM
Description: GSK_PKIS: AKT3 mean inhibition at 0.1 uM [Nanosyn]
The response must be a number in % with no trailing unit.

Examples from the recorded data:
smiles_representation=O=C1Nc2ccc(C(=O)c3ccco3)cc2C1=Cc1cc(Cl)c(O)c(Cl)c1 unit_of_measure=% measured_result=1.75
smiles_representation=CC(C)=Cc1cccc2c1/C(=N/Nc1ccc(S(N)(=O)=O)cc1)C(=O)N2 unit_of_measure=% measured_result=2.87
smiles_representation=NS(=O)(=O)c1ccc(N/N=C2\C(=O)Nc3ccc(C(=O)NCCc4c[nH]cn4)cc32)cc1 unit_of_measure=% measured_result=1.65

GET /values?readout=inhibition&item= "CS(=O)(=O)CCNCc1ccc(-c2ccc3ncnc(Nc4ccc(OCc5cccc(F)c5)c(C(F)(F)F)c4)c3c2)o1"
2.73

Try the compound "CS(=O)(=O)CCNCc1ccc(-c2ccc3ncnc(Nc4ccc(OCc5ccccc5)c(Cl)c4)c3c2)o1"
-0.1

Item: "NCc1ccc(-c2nc(-c3ccc(Cl)c(O)c3)c(-c3ccncc3)[nH]2)cc1"
-0.23

* * *

Target: Serine/threonine-protein kinase BRSK1 (Homo sapiens)
Sequence (whole entry): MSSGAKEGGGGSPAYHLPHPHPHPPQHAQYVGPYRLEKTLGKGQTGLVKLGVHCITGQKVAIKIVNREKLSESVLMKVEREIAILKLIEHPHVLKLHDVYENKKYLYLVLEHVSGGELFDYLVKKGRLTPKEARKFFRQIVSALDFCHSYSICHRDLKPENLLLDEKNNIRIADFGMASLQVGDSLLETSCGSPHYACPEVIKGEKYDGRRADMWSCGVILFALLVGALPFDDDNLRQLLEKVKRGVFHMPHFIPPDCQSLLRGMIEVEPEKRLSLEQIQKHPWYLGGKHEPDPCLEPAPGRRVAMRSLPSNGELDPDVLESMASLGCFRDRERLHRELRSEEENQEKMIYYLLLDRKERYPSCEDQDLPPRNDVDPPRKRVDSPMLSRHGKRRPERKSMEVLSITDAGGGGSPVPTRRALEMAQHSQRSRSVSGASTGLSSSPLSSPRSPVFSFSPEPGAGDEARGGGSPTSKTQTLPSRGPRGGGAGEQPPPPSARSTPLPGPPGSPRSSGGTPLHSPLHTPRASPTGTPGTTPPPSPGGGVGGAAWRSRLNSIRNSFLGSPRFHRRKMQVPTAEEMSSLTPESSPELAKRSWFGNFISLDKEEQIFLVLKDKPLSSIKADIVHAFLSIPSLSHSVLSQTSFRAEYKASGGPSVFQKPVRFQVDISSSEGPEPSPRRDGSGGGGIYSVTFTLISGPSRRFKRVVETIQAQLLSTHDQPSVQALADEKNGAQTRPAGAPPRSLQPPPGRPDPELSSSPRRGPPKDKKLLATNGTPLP
Conditions: at 0.1 µM
Description: GSK_PKIS: BRSK1 mean inhibition at 0.1 uM [Nanosyn]
QUANTITY KIND: inhibition (%)
Note: unit % is implicit; provide only the numeric part.

molecule=Fc1cccc(COc2ccc(Nc3ncnc4cc(-c5ccc[nH]5)sc34)cc2Cl)c1 measured_result=0.67
molecule=Nc1nc(-c2ccc3c(c2)C(=Cc2cc(Br)c(O)c(Br)c2)C(=O)N3)cs1 measured_result=1.06
molecule=CS(=O)(=O)Nc1ccc(N/C=C2\C(=O)Nc3ccccc32)cc1 measured_result=2.83
molecule=NC(=O)c1cccc(Nc2nccc(Nc3cccc4[nH]ncc34)n2)c1 measured_result=3.32
molecule=Cc1ccc(C(=O)NC2CCCCC2)cc1-c1ccc(C(=O)NCC2CC2)cc1 measured_result=2.63
molecule=CN(C)c1cc2c(Nc3ccc4nc(Cc5ccccc5)[nH]c4c3)ncnc2cn1 measured_result=3.31
molecule=O=C1NC(=O)C(c2ccc(Cl)cc2)=C1Nc1ccc(Cl)c(C(=O)O)c1 measured_result=-0.49
molecule=[O-][S+]1CCN(Cc2ccc(-c3ccc4ncnc(Nc5ccc(OCc6ccccc6)c(F)c5)c4c3)o2)CC1 measured_result=3.74

I have this molecule here, "Cc1nnc(-c2ccc(C)c(-c3ccc(C(=O)Nc4cccc(C#N)c4)cc3)c2)o1" , and I need its recorded inhibition.
0.93

Continue with "O=C1NC(=O)C(N2CCc3ccccc32)=C1c1ccc(Cl)cc1"
3.67

Now give it for "O=C1NC(=O)C(c2cccc(Cl)c2)=C1Nc1ccc(O)c(Cl)c1" too.
2.57

Values were extracted from ChEMBL document CHEMBL1961873.
